target: Ss-aIF2 (aIF2 heterotrimer, αβγ) (Saccharolobus solfataricus, UniProt Q980A5, D19A); construct: full heterotrimer of α, β and γ subunits, purified; gamma from pET15b-Ss-aIF2γ; with Translation initiation factor 2 subunit alpha; Translation initiation factor 2 subunit beta; test: nitrocellulose filter binding of [3H]GDP; settings: read-out: apparent Kd
Sequence (Q980A5 whole entry D19A, one chain of several): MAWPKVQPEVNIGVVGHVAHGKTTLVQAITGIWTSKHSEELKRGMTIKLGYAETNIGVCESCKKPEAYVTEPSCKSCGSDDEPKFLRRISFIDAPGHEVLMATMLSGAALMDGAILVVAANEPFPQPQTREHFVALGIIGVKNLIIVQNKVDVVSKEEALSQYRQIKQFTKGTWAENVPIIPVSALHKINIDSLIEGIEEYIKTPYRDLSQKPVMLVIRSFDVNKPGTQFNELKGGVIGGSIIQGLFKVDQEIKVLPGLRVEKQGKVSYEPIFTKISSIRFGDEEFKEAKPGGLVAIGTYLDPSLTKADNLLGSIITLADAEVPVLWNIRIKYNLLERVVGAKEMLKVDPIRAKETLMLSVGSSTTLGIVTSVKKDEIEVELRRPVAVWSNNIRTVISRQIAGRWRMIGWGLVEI
PARAMETER MEASURED: Kd (µM)
Answer with a number only, understood to be in µM.

Query block: Entry Nc1nc2c(ncn2[C@@H]2O[C@H](COP(=O)(O)OP(=O)(O)O)[C@@H](O)[C@H]2O)c(=O)[nH]1 [GDP] : reported Kd = ?
Result block: 0.24

----------
target: Ss-aIF2 (aIF2 heterotrimer, αβγ) (Saccharolobus solfataricus, UniProt Q980A5, H97A); construct: full heterotrimer of α, β and γ subunits, purified; gamma from pET15b-Ss-aIF2γ; with Translation initiation factor 2 subunit alpha; Translation initiation factor 2 subunit beta; experiment: nitrocellulose filter binding of [3H]GDP; conditions: read-out: apparent Kd
Sequence (Q980A5 whole entry H97A): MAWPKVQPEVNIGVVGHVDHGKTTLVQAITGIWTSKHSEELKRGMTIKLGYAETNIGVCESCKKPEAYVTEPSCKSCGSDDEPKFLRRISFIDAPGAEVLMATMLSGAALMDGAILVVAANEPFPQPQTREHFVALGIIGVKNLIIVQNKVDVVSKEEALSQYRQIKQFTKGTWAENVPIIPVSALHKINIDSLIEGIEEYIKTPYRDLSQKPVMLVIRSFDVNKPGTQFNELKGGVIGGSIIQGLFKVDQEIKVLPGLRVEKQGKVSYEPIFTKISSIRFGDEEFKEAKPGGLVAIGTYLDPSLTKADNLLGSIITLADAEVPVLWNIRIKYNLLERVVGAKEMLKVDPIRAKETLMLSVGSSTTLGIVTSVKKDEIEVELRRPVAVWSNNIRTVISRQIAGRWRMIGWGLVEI
Sequence (Q97W59 whole entry, further chain): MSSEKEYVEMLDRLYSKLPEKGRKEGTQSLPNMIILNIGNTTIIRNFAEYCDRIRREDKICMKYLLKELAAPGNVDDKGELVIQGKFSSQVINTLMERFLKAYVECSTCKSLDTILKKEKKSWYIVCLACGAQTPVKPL
Sequence (Q97Z79 whole entry, further chain): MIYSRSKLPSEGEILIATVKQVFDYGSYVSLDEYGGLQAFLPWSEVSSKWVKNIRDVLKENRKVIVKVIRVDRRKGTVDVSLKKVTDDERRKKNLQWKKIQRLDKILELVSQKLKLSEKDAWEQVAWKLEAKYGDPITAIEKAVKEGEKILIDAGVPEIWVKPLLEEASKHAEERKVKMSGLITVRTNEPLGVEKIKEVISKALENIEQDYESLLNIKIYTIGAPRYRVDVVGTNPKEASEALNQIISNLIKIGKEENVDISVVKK
PARAMETER MEASURED: pKd
Remember, pKd is on a log scale: it is -log10 of the molar concentration.

Query block: Entry "Nc1nc2c(ncn2[C@@H]2O[C@H](COP(=O)(O)OP(=O)(O)O)[C@@H](O)[C@H]2O)c(=O)[nH]1" : reported pKd = ?
Result block: 6.47
